Recorded IC50, one value per entry.
# Tested on: SK-MEL-28
# ASSAY PROCEDURE: Cytotoxicity against human SK-MEL-28 cells by MTT assay
# Assay type: functional, cell-based
Value expressed in µM; do not type the unit.

// known answers, use as guide
[[record]]
mol_smiles = "CCCn1c2cc(OCc3ccccc3)ccc2c2cc[n+](CCC(C)C)c(C)c21.[Br-]"
assayed_system = "SK-MEL-28"
val = 1

[[record]]
mol_smiles = "CCCn1c2cc(OCc3ccccc3)ccc2c2cc[n+](CC)c(C)c21.[Br-]"
assayed_system = "SK-MEL-28"
val = 4

[[record]]
mol_smiles = "Cc1c2c(cc[n+]1CCO)c1ccc(OCCO)cc1n2CCO.[Br-]"
assayed_system = "SK-MEL-28"
val = 51


Would you kindly look at the next entry?
# molecule CCCn1c2cc(OCCC(C)C)ccc2c2cc[n+](CC)c(C)c21.[Br-] ; its IC50 = 1

---

# ASSAY PROCEDURE: Aqueous solubility of the compound
# Format: physicochemical
# TEST CONTEXT: buffer; read-out: solubility
# solubility >= 200 µg/mL gives T, anything below gives F

[[record]]
mol_smiles = "CCCOc1ccc2c3cc[n+](CC)c(C)c3n(CCC)c2c1.[Br-]"
label = "F"


Proceed to the following item.
**Q:** # bool: solubility of Cc1c2c(cc[n+]1Cc1ccccc1)c1ccc(OCC3CCCCC3)cc1n2CC1CCCCC1.[Br-] >= 200 µg/mL
**A:** F

---

Each entry below lists one item and its recorded IC50 value.
# Test system: A549
# ASSAY PROCEDURE: Cytotoxicity against human A549 cells by MTT assay
# Type: functional, cell-based
Provide only the numeric value, understood in nM.

Worked examples follow.
[[record]]
mol_smiles = "CCCn1c2cc(OCCC(C)C)ccc2c2cc[n+](CCC)c(C)c21.[Br-]"
unit_of_measure = "nM"
val = 300

[[record]]
mol_smiles = "CCCOc1ccc2c3cc[n+](CCC(C)C)c(C)c3n(CCC)c2c1.[Br-]"
unit_of_measure = "nM"
val = 2000


Form field, IC50 with A549, item CCCn1c2cc(OCc3ccccc3)ccc2c2cc[n+](CCC(C)C)c(C)c21.[Br-] : 300

Summary line: CCCn1c2cc(OCc3ccccc3)ccc2c2cc[n+](CC)c(C)c21.[Br-] , A549, reported IC50 = 2000

Log: A549, compound CCCOc1ccc2c3cc[n+](CC)c(C)c3n(CCC)c2c1.[Br-] , IC50 = 700

Item CCCn1c2cc(OCCC(C)C)ccc2c2cc[n+](CC)c(C)c21.[Br-] was tested on A549; the reported IC50 is 200

Record Cc1c2c(cc[n+]1CCO)c1ccc(OCCO)cc1n2CCO.[Br-] has A549 IC50 equal to 51000

With A549 as the test system, CCCn1c2cc(OCc3ccccc3)ccc2c2cc[n+](CC(C)C)c(C)c21.[Br-] showed IC50 of 800

---

Below, each of the compounds is paired with its reported pIC50 value.
# ASSAY PROCEDURE: Cytostatic activity against human U373 cells after 72 hrs by videomicroscopy
# Format: functional, cell-based, U-373MG ATCC
# TEST CONTEXT: U373 MG
API: returns pIC50 as number; meaning -log10 of concentration in mol/L.

[[record]]
mol_smiles = "CCCn1c2cc(OCc3ccccc3)ccc2c2cc[n+](CCC(C)C)c(C)c21.[Br-]"
endpoint_label = "pIC50"
val = 6.00


For reference, reported pIC50 for CCCn1c2cc(OCCC(C)C)ccc2c2cc[n+](CC)c(C)c21.[Br-] stands at 6.00
